Test: Toxicity study (MTD) in normal mice
Conditions: single i.p. injection; C3H female normal mice; checked daily for 40 days (MTD40)
The reader will find reported MTD Values values listed item by item below.
The reply should be a number in mg/kg, with the unit left off.

molecule	reported metric	data value
CCc1c2c(nc3ccc(OC(=O)N4CCC(N5CCCCC5)CC4)cc13)-c1cc3c(c(=O)n1C2)COC(=O)C3(CC)OC(=O)COc1ccc(C(=O)OC2c3cc4c(cc3C(c3cc(OC)c(OC)c(OC)c3)C3C(=O)OCC23)OCO4)cc1.Cl (centres unmarked) [N3 HCL Salt]	MTD Values	144

# next molecule below
# MTD Values lookup, item CCC1(OC(=O)COc2ccc(C(=O)OC3c4cc5c(cc4C(c4cc(OC)c(OC)c(OC)c4)C4C(=O)OCC34)OCO5)cc2)C(=O)OCc2c1cc1n(c2=O)Cc2cc3cc(OC(=O)N4CCC(N5CCCCC5)CC4)ccc3nc2-1 (centres unmarked) [Compound N2]
300

###

Test: Toxicity study (MTD) in normal mice
Conditions: single i.p. injection; C3H female normal mice; checked daily for 40 days (MTD40)
Quick list: MTD Values per entry.
Please respond with the number in mg/kg and leave the unit unwritten.

compound	units text	data value
CCC1(OC(=O)COc2ccc(C(=O)OC3c4cc5c(cc4C(c4cc(OC)c(OC)c(OC)c4)C4C(=O)OCC34)OCO5)cc2)C(=O)OCc2c1cc1n(c2=O)Cc2cc3cc(OC(=O)N4CCC(N5CCCCC5)CC4)ccc3nc2-1.Cl (stereo not drawn) [Compound 801-HCl]	mg/kg	300
CCc1c2c(nc3ccc(O)c(CN(C)C)c13)-c1cc3c(c(=O)n1C2)COC(=O)C3(CC)OC(=O)COc1ccc(C(=O)OC2c3cc4c(cc3C(c3cc(OC)c(OC)c(OC)c3)C3C(=O)OCC23)OCO4)cc1.Cl (stereo not drawn) [N4 HCL Salt]	mg/kg	180

Now consider a different compound.
Tell me the measured MTD Values of CCC1(OC(=O)COc2ccc(C(=O)OC3c4cc5c(cc4C(c4cc(OC)c(OC)c(OC)c4)C4C(=O)OCC34)OCO5)cc2)C(=O)OCc2c1cc1n(c2=O)Cc2cc3c(CN(C)C)c(O)ccc3nc2-1.Cl (stereo not drawn) [N1 HCL Salt] , please.
120
